FYI, the data here is from patent US20240343814A1.

target: Recombinant human his-tagged IGF 1R extracellular domain protein (human) (UniProt P08069); assay: SPR, captured IgG, IGF-1R ECD-his analyte, dissociation pH 6

Binder	kon, M⁻¹ s⁻¹
VRDN-02532 (antibody, V domains shown) VH: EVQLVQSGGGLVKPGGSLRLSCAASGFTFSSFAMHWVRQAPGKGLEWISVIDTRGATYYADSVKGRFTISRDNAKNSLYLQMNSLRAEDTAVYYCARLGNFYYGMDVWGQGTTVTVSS VL: EIVLTQSPGTLSVSPGERATLSCRASQHIGSSLHWYQQKPGQAPRLLIKYASQSLSGIPDRFSGSGSGTDFTLTISRLEPEDFAVYYCHQSSRLPHTFGQGTKVEIK	34300
VRDN-02518 (antibody, V domains shown) VH: EVQLVQSGGGLVKPGGSLRLSCAASGFTFSSFAMHWVRQAPGKGLEWISVIDTRGATYYADSVKGRFTISRDNAKNSLYLQMNSLRAEDTAVYYCARHGNFYYGMDVWGQGTTVTVSS VL: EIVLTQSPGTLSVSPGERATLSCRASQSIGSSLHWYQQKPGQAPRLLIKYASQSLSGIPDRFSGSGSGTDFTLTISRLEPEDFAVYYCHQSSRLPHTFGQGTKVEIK	26000
VRDN-02504 (antibody, V domains shown) VH: EVQLVQSGGGLVKPGGSLRLSCAASGFTHSSFAMHWVRQAPGKGLEWISVIDTRGATYYADSVKGRFTISRDNAKNSLYLQMNSLRAEDTAVYYCARLGNFYYGMDVWGQGTTVTVSS VL: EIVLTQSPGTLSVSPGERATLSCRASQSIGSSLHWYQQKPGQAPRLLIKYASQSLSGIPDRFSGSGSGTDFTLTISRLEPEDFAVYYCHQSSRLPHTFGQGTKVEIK	41300
VRDN-02519 (antibody, V domains shown) VH: EVQLVQSGGGLVKPGGSLRLSCAASGFTFSSFAMHWVRQAPGKGLEWISVIDTRGATYYADSVKGRFTISRDNAKNSLYLQMNSLRAEDTAVYYCARLHNFYYGMDVWGQGTTVTVSS VL: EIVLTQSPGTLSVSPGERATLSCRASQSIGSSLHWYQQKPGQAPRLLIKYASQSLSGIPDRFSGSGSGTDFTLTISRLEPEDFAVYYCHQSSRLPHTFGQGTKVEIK	37100
VRDN-02536 (antibody, V domains shown) VH: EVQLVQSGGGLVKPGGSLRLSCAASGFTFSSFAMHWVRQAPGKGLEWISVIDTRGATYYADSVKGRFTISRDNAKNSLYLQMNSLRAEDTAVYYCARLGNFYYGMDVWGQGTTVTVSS VL: EIVLTQSPGTLSVSPGERATLSCRASQSIGSHLHWYQQKPGQAPRLLIKYASQSLSGIPDRFSGSGSGTDFTLTISRLEPEDFAVYYCHQSSRLPHTFGQGTKVEIK	43900
VRDN-02569 (antibody, V domains shown) VH: EVQLVQSGGGLVKPGGSLRLSCAASGFTFSSFHMHWVRQAPGKGLEWISVIHTRGATYYADSVKGRFTISRDNAKNSLYLQMNSLRAEDTAVYYCARLGNFYYGMDVWGQGTTVTVSS VL: EIVLTQSPGTLSVSPGERATLSCRASQSIGSSLHWYQQKPGQAPRLLIKHASQSLSGIPDRFSGSGSGTDFTLTISRLEPEDFAVYYCHQSSRLPHTFGQGTKVEIK	342000
VRDN-02512 (antibody, V domains shown) VH: EVQLVQSGGGLVKPGGSLRLSCAASGFTFSSFAMHWVRQAPGKGLEWISVIDTHGATYYADSVKGRFTISRDNAKNSLYLQMNSLRAEDTAVYYCARLGNFYYGMDVWGQGTTVTVSS VL: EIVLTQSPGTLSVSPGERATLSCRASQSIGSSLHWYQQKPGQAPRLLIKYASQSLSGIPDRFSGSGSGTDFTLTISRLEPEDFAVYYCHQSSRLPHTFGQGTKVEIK	32900
VRDN-02559 (antibody, V domains shown) VH: EVQLVQSGGGLVKPGGSLRLSCAASGFTFSSFHMHWVRQAPGKGLEWISVIDTRGATYYADSVKGRFTISRDNAKNSLYLQMNSLRAEDTAVYYCHRLGNFYYGMDVWGQGTTVTVSS VL: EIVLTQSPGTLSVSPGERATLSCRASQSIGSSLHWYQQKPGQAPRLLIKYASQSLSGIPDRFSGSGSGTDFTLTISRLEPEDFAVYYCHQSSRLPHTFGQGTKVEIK	327000
VRDN-02546 (antibody, V domains shown) VH: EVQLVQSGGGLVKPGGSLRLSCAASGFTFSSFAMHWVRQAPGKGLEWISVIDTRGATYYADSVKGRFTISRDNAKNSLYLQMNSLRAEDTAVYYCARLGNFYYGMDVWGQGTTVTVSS VL: EIVLTQSPGTLSVSPGERATLSCRASQSIGSSLHWYQQKPGQAPRLLIKYASQSLSGIPDRFSGSGSGTDFTLTISRLEPEDFAVYYCHHSSRLPHTFGQGTKVEIK	38600
